# assay-method-text: in vivo
# conditions-used: dog, plasma, po, 75 mg
parameter-measured: concentration at 2 h
Give the value; after it, write the unit.

For this molecule ( OCCN(CCO)c1nc(N2CCCCC2)c2nc(N(CCO)CCO)nc(N3CCCCC3)c2n1 ), measured concentration at 2 h is 4710 ng/mL

----------
# assay-method-text: in vivo
# conditions-used: dog, plasma, po, 75 mg
parameter-measured: concentration at 10 min (ng/mL)
Numbers only, in ng/mL.

Lookup result for OCCN(CCO)c1nc(N2CCCCC2)c2nc(N(CCO)CCO)nc(N3CCCCC3)c2n1 [dipyridamole] ; measured concentration at 10 min: 8

----------
# assay-method-text: in vivo
# conditions-used: dog, plasma, po, 75 mg
parameter-measured: concentration at 0.75 h (ng/mL)
Answers are plain numbers, in ng/mL.

compound OCCN(CCO)c1nc(N2CCCCC2)c2nc(N(CCO)CCO)nc(N3CCCCC3)c2n1 [dipyridamole] , concentration at 0.75 h observed: 1620

----------
# assay-method-text: in vivo
# conditions-used: dog, plasma, po, 75 mg
parameter-measured: concentration at 7 h (ng/mL)
One number for each entry, in ng/mL.

Summary for this compound, OCCN(CCO)c1nc(N2CCCCC2)c2nc(N(CCO)CCO)nc(N3CCCCC3)c2n1 : concentration at 7 h is 360

----------
# assay-method-text: in vivo
# conditions-used: dog, plasma, po, 75 mg
parameter-measured: concentration at 3 h (ng/mL)
Give bare numbers, in ng/mL.

Sample OCCN(CCO)c1nc(N2CCCCC2)c2nc(N(CCO)CCO)nc(N3CCCCC3)c2n1 [dipyridamole] ; concentration at 3 h observed: 2930

----------
# assay-method-text: in vivo
# conditions-used: dog, plasma, po, 75 mg
parameter-measured: concentration at 20 min
Reply with a number, then the unit it belongs to.

Note to self: concentration at 20 min recorded for OCCN(CCO)c1nc(N2CCCCC2)c2nc(N(CCO)CCO)nc(N3CCCCC3)c2n1 was 24 ng/mL

----------
# assay-method-text: in vivo
# conditions-used: dog, plasma, po, 75 mg
parameter-measured: concentration at 6 h (ng/mL)
Answers are plain numbers, in ng/mL.

Recorded concentration at 6 h (molecule OCCN(CCO)c1nc(N2CCCCC2)c2nc(N(CCO)CCO)nc(N3CCCCC3)c2n1 ): 628

----------
# assay-method-text: in vivo
# conditions-used: dog, plasma, po, 75 mg
parameter-measured: concentration at 1.5 h (ng/mL)
One number for each entry, in ng/mL.

The molecule identified as OCCN(CCO)c1nc(N2CCCCC2)c2nc(N(CCO)CCO)nc(N3CCCCC3)c2n1 registered its concentration at 1.5 h at 3960

----------
# assay-method-text: in vivo
# conditions-used: dog, plasma, po, 75 mg
parameter-measured: concentration at 2.5 h (ng/mL)
One number for each entry, in ng/mL.

# concentration at 2.5 h (compound: OCCN(CCO)c1nc(N2CCCCC2)c2nc(N(CCO)CCO)nc(N3CCCCC3)c2n1 [dipyridamole] ) is 4730

The reported numbers originate from patent US5010064A.
